Here the recorded expected percent binding is given for each entry.
# Study System: T1, HCV Core1-169 (hepatitis C virus (HCV-1), UniProt P26664 1-169)
# T1 sequence: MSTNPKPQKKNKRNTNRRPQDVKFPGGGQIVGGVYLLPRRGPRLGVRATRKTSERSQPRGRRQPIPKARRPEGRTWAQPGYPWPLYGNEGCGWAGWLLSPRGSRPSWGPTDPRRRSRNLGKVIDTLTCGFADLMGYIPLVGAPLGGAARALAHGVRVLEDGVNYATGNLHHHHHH
# Test Summary: SPR sandwich, capture mAb C11-3
Experimental Readout: expected percent binding

Binder: HCV 208B-1024 (antibody, V domains shown) VH: EVQLVESGGDLVKPGGSLKLSCAASGFTFSNYGMSWVRQTPDKRLEWVATISSGGSYSYYPDSVKGRFTISRDNAKNILYLQMSSLKSEDTAMYYCASLYYGYGDYWGQGTAFTVSS VL: DVLMTQTPLSLPVSLGDQASISCRSSQSIVHSNGNTYLEWYLQKLGQSPKLLIYRVSNRFSGVPDRFSGSGSGTDFTLKISRVEAEDLGVYYCFQGSHVPWTFGGGTKLEIKR
Experimental Readout: expected percent binding
Endpoint Value: 10.9%

Binder: HCV 208B-560 (antibody, V domains shown) VH: EVQLQQSGPELEKPGASVKISCKTSGYTFTEYAMHWVKQSHGMSLEWIGGINPSNGNAIYNQIFKDKATLTVDRSSSTAYMGLRSLTFGDSGVYFCVRRQLDFFDYWGQGASLTVSS VL: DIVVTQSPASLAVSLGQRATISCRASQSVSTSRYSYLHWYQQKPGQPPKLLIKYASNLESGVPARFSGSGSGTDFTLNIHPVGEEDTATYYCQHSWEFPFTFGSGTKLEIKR
Experimental Readout: expected percent binding
Endpoint Value: 10.6%
